Parameter TGI: see the listing below.
- Test system: MOLT-4 leukemia
- ASSAY_NOTES: NCI tumour cell line growth inhibition, 48 h
MEASURED_QUANTITY: TGI

[
  {
    "MOLECULE": "COc1cc(-c2cc(-c3nc4ccccc4[nH]3)[nH]n2)cc(OC)c1OC",
    "TARGET_OF_ASSAY": "MOLT-4 leukemia",
    "REPORTED_MEASUREMENT": "5.17 µM"
  },
  {
    "MOLECULE": "CO/N=C1/NC(=O)/C(=C/c2ccc3ncccc3c2)S1",
    "TARGET_OF_ASSAY": "MOLT-4 leukemia",
    "REPORTED_MEASUREMENT": "> 25 µM"
  },
  {
    "MOLECULE": "c1cncc(CNc2ccccc2-c2nnc(Nc3ccc4c(c3)OCCO4)o2)c1",
    "TARGET_OF_ASSAY": "MOLT-4 leukemia",
    "REPORTED_MEASUREMENT": "15.5 µM"
  },
  {
    "MOLECULE": "COc1cc(/C=C/C(=O)O)ccc1O",
    "TARGET_OF_ASSAY": "MOLT-4 leukemia",
    "REPORTED_MEASUREMENT": "> 100 µM"
  },
  {
    "MOLECULE": "Cc1cc2c(cc1Cl)Sc1nnc(C)n1S2(=O)=O",
    "TARGET_OF_ASSAY": "MOLT-4 leukemia",
    "REPORTED_MEASUREMENT": "34.7 µM"
  },
  {
    "MOLECULE": "Cc1cc2c(C(N)=O)cccc2n1-c1nc2c(c(NCc3ccccc3)n1)CCCN2",
    "TARGET_OF_ASSAY": "MOLT-4 leukemia",
    "REPORTED_MEASUREMENT": "1.16 µM"
  },
  {
    "MOLECULE": "NC(=NC1CCCCCC1)c1ccc(N2CCN(c3ccc(C(N)=NC4CCCCCC4)cc3)CC2)cc1",
    "TARGET_OF_ASSAY": "MOLT-4 leukemia",
    "REPORTED_MEASUREMENT": "> 50 µM"
  },
  {
    "MOLECULE": "COc1cccc(NC(=O)N/C(=C/c2ccc(N(CCC#N)CCC#N)cc2)NC(=O)c2cc([N+](=O)[O-])ccc2Cl)c1",
    "TARGET_OF_ASSAY": "MOLT-4 leukemia",
    "REPORTED_MEASUREMENT": "> 100 µM"
  },
  {
    "MOLECULE": "N#Cc1nsnc1-c1nc(-c2nsnc2C#N)nc(-c2nsnc2C#N)n1",
    "TARGET_OF_ASSAY": "MOLT-4 leukemia",
    "REPORTED_MEASUREMENT": "> 100 µM"
  },
  {
    "MOLECULE": "Cc1ccc(S(=O)(=O)OCC23CCC(C4CC42)C2CC23)cc1 (stereo unspecified)",
    "TARGET_OF_ASSAY": "MOLT-4 leukemia",
    "REPORTED_MEASUREMENT": "> 100 µM"
  },
  {
    "MOLECULE": "COc1cc2c(cc1OC)[C@@H](C(O)c1ccccc1)NCC2 (stereo partly specified)",
    "TARGET_OF_ASSAY": "MOLT-4 leukemia",
    "REPORTED_MEASUREMENT": "> 100 µM"
  },
  {
    "MOLECULE": "Cc1[nH]n(-c2nc(O)c(C)c(=O)[nH]2)c(=O)c1CCO",
    "TARGET_OF_ASSAY": "MOLT-4 leukemia",
    "REPORTED_MEASUREMENT": "> 100 µM"
  },
  {
    "MOLECULE": "COc1cc2c(OC)c(c1)CCCC1=CC(=O)C=C(CCC2)C1=O",
    "TARGET_OF_ASSAY": "MOLT-4 leukemia",
    "REPORTED_MEASUREMENT": "15.7 µM"
  },
  {
    "MOLECULE": "CCCCC(=O)[O-].N.N.N.N.N.[Co+3].[O-][Cl+3]([O-])([O-])[O-]",
    "TARGET_OF_ASSAY": "MOLT-4 leukemia",
    "REPORTED_MEASUREMENT": "> 100 µM"
  },
  {
    "MOLECULE": "COc1cccc(/C=C/C(=O)c2cc3c(N)c(C(=O)Nc4cccc(Cl)c4C)sc3nc2C)c1",
    "TARGET_OF_ASSAY": "MOLT-4 leukemia",
    "REPORTED_MEASUREMENT": "> 50 µM"
  },
  {
    "MOLECULE": "C/C(=N/NC(=S)N(Cc1ccccn1)Cc1ccccn1)c1cnccn1",
    "TARGET_OF_ASSAY": "MOLT-4 leukemia",
    "REPORTED_MEASUREMENT": "> 34.4 µM"
  },
  {
    "MOLECULE": "O=C1CNc2cc(N3CCN(c4cccc(C(F)(F)F)c4)CC3)ccc2N1",
    "TARGET_OF_ASSAY": "MOLT-4 leukemia",
    "REPORTED_MEASUREMENT": "> 84.3 µM"
  },
  {
    "MOLECULE": "CCCCCC(/C=N/NC(N)=S)C(O)(C(F)(F)F)C(F)(F)F (stereo unspecified)",
    "TARGET_OF_ASSAY": "MOLT-4 leukemia",
    "REPORTED_MEASUREMENT": "> 10 µM"
  },
  {
    "MOLECULE": "CCC(/C=C/c1ccccc1)=N\\NC(=S)N/N=C(/C=C/c1ccccc1)CC",
    "TARGET_OF_ASSAY": "MOLT-4 leukemia",
    "REPORTED_MEASUREMENT": "> 100 µM"
  },
  {
    "MOLECULE": "C#CC[C@H](c1nc2cc(Cl)ccc2c(=O)n1Nc1ccccc1)N(CCCN)C(=O)c1cccc(Cl)c1F",
    "TARGET_OF_ASSAY": "MOLT-4 leukemia",
    "REPORTED_MEASUREMENT": "2.8 µM"
  },
  {
    "MOLECULE": "CC(C)(N=NC(C)(C)C1=NCCN1)C1=NCCN1",
    "TARGET_OF_ASSAY": "MOLT-4 leukemia",
    "REPORTED_MEASUREMENT": "> 100 µM"
  }
]
